Protein target, amino acids: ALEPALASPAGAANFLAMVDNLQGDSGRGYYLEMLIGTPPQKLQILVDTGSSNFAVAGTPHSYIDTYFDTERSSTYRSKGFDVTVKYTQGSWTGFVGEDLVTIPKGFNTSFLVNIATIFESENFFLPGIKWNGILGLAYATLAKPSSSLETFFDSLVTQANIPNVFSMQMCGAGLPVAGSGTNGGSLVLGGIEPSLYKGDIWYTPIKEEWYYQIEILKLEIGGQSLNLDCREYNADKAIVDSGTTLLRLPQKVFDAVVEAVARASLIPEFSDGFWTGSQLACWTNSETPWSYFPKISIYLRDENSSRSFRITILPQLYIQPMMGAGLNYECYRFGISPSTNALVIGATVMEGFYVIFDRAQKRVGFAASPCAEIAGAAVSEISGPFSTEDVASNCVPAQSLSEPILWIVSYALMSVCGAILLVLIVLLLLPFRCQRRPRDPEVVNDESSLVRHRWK
pKi: −log10 of the molar value.
Listed next: entries and their corresponding pKi.
measured-metric: pKi

compound: CC(C)CNC(=O)C(NC(=O)C(C)CC(O)C(CC(C)C)NC(=O)c1cccc(C(=O)N(C)Cc2nccn2C)c1)C(C)C (stereo not drawn)
measured-metric: pKi
meas-value: < 5.30

compound: CC(C)CC(NC(=O)c1cc(C(=O)NC(C)c2ccccc2)cc(N(C)S(C)(=O)=O)c1)C(O)CC(C)C(=O)NCc1ccccc1 (stereo not drawn)
measured-metric: pKi
meas-value: 5.30 to 5.70

compound: CC(=O)Nc1cc(C(=O)NC(C)c2ccccc2)cc(C(=O)NC(CC(C)C)C(O)CC(C)C(=O)NC(C(=O)NCC(C)C)C(C)C)c1 (stereo not drawn)
measured-metric: pKi
meas-value: > 6.39

compound: CC(C)CC(NC(=O)c1cc(C(=O)NC2c3ccccc3CC2O)cc(N(C)S(C)(=O)=O)c1)C(O)CC(C)C(=O)NC(C(=O)NC(C)C)C(C)C (stereo not drawn)
measured-metric: pKi
meas-value: 5.70 to 6.39

compound: Cc1ccc(CNC(=O)c2cc(C(=O)NC(CC(C)C)C(O)CC(C)C(=O)NC(C(=O)NCC(C)C)C(C)C)cc(N(C)S(C)(=O)=O)c2)o1 (stereo not drawn)
measured-metric: pKi
meas-value: 5.70 to 6.39

compound: CC(C)CNC(=O)C(NC(=O)C(C)CC(O)C(CC(C)C)NC(=O)c1cncc(C(=O)N(C)Cc2ccccn2)c1)C(C)C (stereo not drawn)
measured-metric: pKi
meas-value: > 6.39

compound: CC(C)CNC(=O)C(NC(=O)C(C)CC(O)C(CC(C)C)NC(=O)c1cc(C(=O)N(C)Cc2ccccn2)cc(N(C)S(C)(=O)=O)c1)C(C)C (stereo not drawn)
measured-metric: pKi
meas-value: 5.70 to 6.39

compound: CC(C)CC(NC(=O)c1cc(C(=O)NC(C)c2ccccc2)cc(N(C)S(C)(=O)=O)c1)C(O)CC(C)C(=O)NC(C(=O)NCc1ccncc1)C(C)C (stereo not drawn)
measured-metric: pKi
meas-value: > 6.39

compound: CC(C)CNC(=O)C(NC(=O)C(C)CC(O)C(CC(C)C)NC(=O)c1cc(C(=O)NC(C)c2ccccc2)cc(S(=O)(=O)N(C)C)c1)C(C)C (stereo not drawn)
measured-metric: pKi
meas-value: > 6.39

compound: CC(C)CNC(=O)C(NC(=O)C(C)CC(O)C(CC(C)C)NC(=O)c1cc(C(=O)NCc2cnccn2)cc(N(C)S(C)(=O)=O)c1)C(C)C (stereo not drawn)
measured-metric: pKi
meas-value: 5.70 to 6.39

compound: Cc1nc(CN(C)C(=O)c2cccc(C(=O)NC(CC(C)C)C(O)CC(C)C(=O)NC(C(=O)NCC(C)C)C(C)C)c2)c(C)o1 (stereo not drawn)
measured-metric: pKi
meas-value: 5.70 to 6.39

compound: CC(C)CC(NC(=O)c1cc(C(=O)NC(C)c2ccccc2)cc(N(C)S(C)(=O)=O)c1)C(O)CC(C)C(=O)NC(C(=O)NCc1cccnc1)C(C)C (stereo not drawn)
measured-metric: pKi
meas-value: > 6.39

compound: Cc1csc(CNC(=O)c2cccc(C(=O)N[C@@H](CC(C)C)[C@@H](O)C[C@@H](C)C(=O)N[C@H](C(=O)NCC(C)C)C(C)C)c2)n1
measured-metric: pKi
meas-value: 5.30 to 5.70

compound: CCC(NC(=O)C(C)CC(O)C(CC(C)C)NC(=O)c1cc(C(=O)NC(C)c2ccccc2)cc(N(C)S(C)(=O)=O)c1)C(=O)NCC(C)C (stereo not drawn)
measured-metric: pKi
meas-value: > 6.39

compound: COC(=O)N(C)c1cc(C(=O)NC(C)c2ccccc2)cc(C(=O)NC(CC(C)C)C(O)CC(C)C(=O)NC(C(=O)NCC(C)C)C(C)C)c1 (stereo not drawn)
measured-metric: pKi
meas-value: > 6.39

compound: CC(C)CNC(=O)C(NC(=O)C(C)CC(O)C(CC(C)C)NC(=O)c1cccc(C(=O)N(C)Cc2ccccn2)c1)C(C)C (stereo not drawn)
measured-metric: pKi
meas-value: > 6.39

compound: COc1cccc(CNC(=O)C(C)CC(O)C(CC(C)C)NC(=O)c2cc(C(=O)NC(C)c3ccccc3)cc(N(C)S(C)(=O)=O)c2)c1 (stereo not drawn)
measured-metric: pKi
meas-value: < 5.30

compound: COc1ccc(C[C@H](NC(=O)c2cccc(C(=O)NCc3nc(C)cs3)c2)[C@@H](O)C[C@@H](C)C(=O)N[C@H](C(=O)NCC(C)C)C(C)C)cc1
measured-metric: pKi
meas-value: 5.70 to 6.39

compound: CCc1csc(CN(C)C(=O)c2cccc(C(=O)NC(CC(C)C)C(O)CC(C)C(=O)NC(C(=O)NCC(C)C)C(C)C)c2)n1 (stereo not drawn)
measured-metric: pKi
meas-value: > 6.39

compound: CCN(Cc1ccncc1)C(=O)c1cc(C)cc(C(=O)NC(CC(C)C)C(O)CC(C)C(=O)NC(C(=O)NCC(C)C)C(C)C)c1 (stereo not drawn)
measured-metric: pKi
meas-value: > 6.39

compound: CC(C)CC(NC(=O)c1cc(C(=O)NC(C)c2ccccc2)cc(N(C)S(C)(=O)=O)c1)C(O)CC(C)C(=O)NC(C)c1ccccc1 (stereo not drawn)
measured-metric: pKi
meas-value: < 5.30
